Test system: M14 melanoma
experimentNotes: NCI-60 one-dose screen, 48 h
particulars: 10 µM unless noted
Experimental: Growth inhibition of the M14 human tumor cell line is measured as a screen for anti-cancer activity. Cells are grown in 96 well plates and exposed to the test compound for 48 hours. Compounds are tested at a single concentration, which is 10^-5 M for most compounds. The reported endpoint is percent growth (GI% or GIPRCNT), where numbers from 0 - 100% represent growth inhibition, and numbers from -100% - 0 represent cell death. For example, a value of 40 represents 60% growth inhibition. […]
This is part of a sample that, as a whole, favours compounds with a hit. Of some 83,000 tested, about 20% had one in any assay. The source made the active and inactive calls. The calls were made as follows: active = growth percent below 10; inactive = the rest.
Labels: label 1 (active), label 0 (inactive)

[
  {
    "compound": "CC(=O)c1cc2c(o1)C(=O)c1ccccc1C2=O",
    "qualitativeLabel": "label 1"
  },
  {
    "compound": "C=C1C(=O)O[C@H]2[C@H]1CC/C(C(=O)NCCCCCCCCNC(=O)/C1=C/CC[C@@]3(C)O[C@H]3[C@H]3OC(=O)C(=C)[C@@H]3CC1)=C\\CC[C@@]1(C)O[C@@H]21",
    "qualitativeLabel": "label 0"
  },
  {
    "compound": "Cc1c(C)c2c(c(C)c1NC(=O)/C=C\\C(=O)O)CCC(C)(CCCC(C)CCCC(C)CCCC(C)C)O2 (configuration not stated)",
    "qualitativeLabel": "label 0"
  },
  {
    "compound": "Cc1[nH]c(-c2nc3ccccc3[nH]2)c(C)c1C(=O)NNc1ccc(Cl)cc1",
    "qualitativeLabel": "label 0"
  },
  {
    "compound": "CN(CCCCCCCCNc1ccnc2ccccc12)Cc1ccc(-c2ccc(-c3ccc(C#N)cc3)s2)cc1",
    "qualitativeLabel": "label 1"
  },
  {
    "compound": "C/C(=N\\NC(=O)Cn1c(-c2ccc(S(C)(=O)=O)cc2)nc2cc(Cl)ccc21)c1ccc(Cl)cc1",
    "qualitativeLabel": "label 0"
  },
  {
    "compound": "Nc1ccc(S(=O)(=O)Nc2ccsc2-c2nc(-c3ccccc3)no2)cc1",
    "qualitativeLabel": "label 0"
  },
  {
    "compound": "CCOC(=O)C1C(=O)C=C(c2cnccn2)CC1c1ccc(OC)c(OC)c1 (configuration not stated)",
    "qualitativeLabel": "label 0"
  },
  {
    "compound": "CS(=O)(=O)c1ccc(-c2nc3cc(Cl)ccc3n2CC(=O)N/N=C/c2ccc(Cl)cc2)cc1",
    "qualitativeLabel": "label 0"
  },
  {
    "compound": "O=c1ccn(C2OC(F)(CO)C(O)C2F)c(=O)[nH]1 (configuration not stated)",
    "qualitativeLabel": "label 0"
  },
  {
    "compound": "CCN(CC)c1ccc(Nc2ccc(CC(=O)c3ccccc3)cc2)cc1",
    "qualitativeLabel": "label 0"
  },
  {
    "compound": "NC(=S)N/N=C/C(=O)O",
    "qualitativeLabel": "label 0"
  }
]
